Attribution: patent US20250011448A1

Overview of reported pEC50 across a group of binders:
TGT: T1, human TNFR2 extracellular domain with C-terminal 10×His tag (human, UniProt P20333 23-257)
T1 construct: also called huTNFR2-His; His-tag-huTNFR2
T1 sequence: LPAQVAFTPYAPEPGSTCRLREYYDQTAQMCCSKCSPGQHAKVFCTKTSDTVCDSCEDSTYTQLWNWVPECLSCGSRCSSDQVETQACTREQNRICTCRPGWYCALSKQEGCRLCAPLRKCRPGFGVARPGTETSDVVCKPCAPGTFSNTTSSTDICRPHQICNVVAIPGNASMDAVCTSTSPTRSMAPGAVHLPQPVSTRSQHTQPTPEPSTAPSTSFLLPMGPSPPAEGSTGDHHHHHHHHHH
ASSAY_COMMENT: ELISA, plate coated with His-tagged TNFR2 ECD, serial dilution of chimeric IgG
Formally, pEC50 is defined as -log10 of the concentration c, with c in mol/L.

Check out these entries, answers already filled in.
29G3 chimeric anti-TNFR2 antibody (antibody, V domains shown, Chimeric: mouse variable domains with human constant regions, made as recombinant IgG1) VH: EVMLVESGGASVKPGGSLKLSCAASGFTFSNFAMSWVRQTPEKRLEWVATIRSGDNYSYYSDNVKGRFTISRDNARNTLYLQMSSLRSKDTSIYYCARNWDKVFDYWGQGTTLTVSS VL: DIVLTQSPASLAVSLGQRATISCRASESVDSYGYSFMHWYQQKPGQPPKLLIYRASNLKSGIPARFSGSGSRTDFTLTINPVEADDVATYYCQQSNEDHTFGGGTKLEIK | 10.53
85G8.4 chimeric anti-TNFR2 antibody (antibody, V domains shown, Chimeric: mouse variable domains with human constant regions, made as recombinant IgG1) VH: EVQLQQSGPELVKPGASVKISCKTSGYTFTDFNMDWVKQSHGKSLEWIGYINPNNGDAAYNQKFKSKATLTVDKSSNTAYMELHSLTSDDSAVYYCARWGWAFAYWGQGTLVTVSA VL: DIVMTQSHKIMSTSVGDRVSITCKASQDVKTAVAWYQQKPGQSPKLLIYATSYRYTGVPDRFTGSGSGTDFTFTISTVQAEDLAVYYCQQHYSIPYTFGGGTKLEIK | 10.41
15H10 chimeric anti-TNFR2 antibody (antibody, V domains shown, Chimeric: mouse variable domains with human constant regions, made as recombinant IgG1) VH: DVQLQESGPGLVTPSQSLSLTCSVTGYSITSGYYWNWIRQFPGNKLEWMGYITYDGNNNYNPSLKSRFSITRDTSKNQFFLKLNSVTSEDTATYYCARGDYGDSAMDYWGQGTSVTVSS VL: EIVLTQSPAITAASLGQKVTITCSASSGVNYMHWYQQKSGTSPKPWIYEISKLASGVPARFSGSGSGTSYSLTISSMEAEDAAIYYCQQWNYPLITFGAGTKVELK | 10.29
102E4 chimeric anti-TNFR2 antibody (antibody, V domains shown, Chimeric: mouse variable domains with human constant regions, made as recombinant IgG1) VH: EVLLQQSGAELVRPGASVKLSCTASGFNIKDDFIHWVQQRPEQGLEWIGRINPSNANTEYAPKFQDKATITTDTSSNTAYLQLSSLTSEDTAVYYCTRNDGYYDGLFYWGQGTTLTVSS VL: DIVMTQSHKFMSSSVGDRVSITCKASQDVGTAVAWYQQKPGQSPKLLIYWASTRHTGVPDRFTGSGSGTDFTLTISNVQSEDLADYFCQQYSSYPFTFGSGTKLEIK | 10.40

Alright, here's another binder for you.
Q. What value of measured pEC50 is listed for 11C1 chimeric anti-TNFR2 antibody (antibody, V domains shown, Chimeric: mouse variable domains with human constant regions, made as recombinant IgG1) VH: DVQLRESGPGLVTPSQSLSLTCSVTGYSITSGYYWNWIRQIPGNKLEWMGYITYDGNNNYDPSLKNRISITRDTSKNQFFLTLNSVTSEDTATYYCARGDYGDSAMDYWGQGTSVTVSS VL: EIVLTQSPAITAASLGQKVTITCSASSSVSYMHWYQQKSGTSPKPWIYEISKLASGVPARFSGSGSGTSYSLIISSMEAEDAAIYYCQQWNYPLITFGAGTKLELK ?
A. 10.29
